Property: IC50; scope: individual compounds
- Tested on: PANC-1 cells
- Protocol Text: cell viability assay in PANC-1 cells (compound alone, + 100 ng/ml TNFa, + 300 ng/ml TRAIL)
- Format: cell-based
- Particulars: with 100 ng/ml TNFa; Tables 6-10; read-out: IC50 (μM) in cell viability assay in PANC-1 cells: Compound + 100 ng/ml TNFa

- Compound: "CN[C@@H](C)C(=O)Nc1nc(CC(=O)NCCc2cn([C@H]3C[C@@H](C(=O)N[C@@H]4CCCc5ccccc54)N(C(=O)[C@@H](NC(=O)[C@H](C)NC)C(C)(C)C)C3)nn2)cs1"
  Experimental Target: "PANC-1 cells"
  Result Comparator: ">"
  IC50 (µM): 1
- Compound: "CN[C@@H](C)C(=O)N[C@H](C(=O)N[C@@H](CCNC(=O)c1cc(N)cc(C(=O)N[C@H]2C[C@@H](C(=O)N[C@@H]3CCCc4ccccc43)N(C(=O)[C@@H](NC(=O)[C@H](C)NC)C(C)(C)C)C2)c1)C(=O)N[C@@H]1CCCc2ccccc21)C(C)C"
  Experimental Target: "PANC-1 cells"
  Result Comparator: "="
  IC50 (µM): 0.044
- Compound: "CCCC[C@@H](C)NC(=O)c1cc(C(=O)N[C@H]2C[C@@H](C(=O)N[C@@H]3CCCc4ccccc43)N(C(=O)[C@@H](NC(=O)[C@H](C)NC)C(C)(C)C)C2)cc(C(=O)N[C@H]2C[C@@H](C(=O)N[C@@H]3CCCc4ccccc43)N(C(=O)[C@@H](NC(=O)[C@H](C)NC)C(C)(C)C)C2)c1 [Compound 128]"
  Experimental Target: "PANC-1 cells"
  Result Comparator: "="
  IC50 (µM): 0.01
- Compound: "CN[C@@H](C)C(=O)N[C@H](C(=O)N1C[C@@H](NC(=O)c2cccc(C(=O)N[C@H]3C[C@@H](C(=O)NC4CCOc5ccccc54)N(C(=O)[C@@H](NC(=O)[C@H](C)NC)C(C)(C)C)C3)c2)C[C@H]1C(=O)NC1CCOc2ccccc21)C(C)(C)C (single isomer, unassigned) [Compound 65]"
  Experimental Target: "PANC-1 cells"
  Result Comparator: "="
  IC50 (µM): 0.265
- Compound: "CCCC[C@@H](C)NC(=O)c1cc(C(=O)N[C@H]2C[C@@H](C(=O)N[C@@H]3CCCc4ccccc43)N(C(=O)[C@@H](NC(=O)[C@H](C)NC)C(C)(C)C)C2)cc(C(=O)N[C@H]2C[C@@H](C(=O)N[C@@H]3CCCc4ccccc43)N(C(=O)[C@@H](NC(=O)[C@H](C)NC)C(C)(C)C)C2)c1 [Compound 129]"
  Experimental Target: "PANC-1 cells"
  Result Comparator: "="
  IC50 (µM): 0.006
- Compound: "CN[C@@H](C)C(=O)N[C@H](C(=O)N1CCC[C@H]1Cn1cnnc1CCc1ccccc1)[C@@H](C)OCCCCCCO[C@H](C)[C@H](NC(=O)[C@H](C)NC)C(=O)N1CCC[C@H]1Cn1cnnc1CCc1ccccc1"
  Experimental Target: "PANC-1 cells"
  Result Comparator: ">"
  IC50 (µM): 1
- Compound: "CN[C@@H](C)C(=O)N[C@H](C(=O)N1C[C@@H](NC(=O)c2ccc(C(=O)N3CCN(C(=O)[C@H](C)NC)CC3)cc2)C[C@H]1C(=O)N[C@@H]1CCCc2ccccc21)C(C)(C)C"
  Experimental Target: "PANC-1 cells"
  Result Comparator: "="
  IC50 (µM): 0.56
- Compound: "CN[C@@H](C)C(=O)N[C@H](C(=O)N1CCC[C@H]1C(=O)N[C@H]1c2ccccc2C[C@@H]1NC(=O)CCCCC(=O)N[C@H]1Cc2ccccc2[C@@H]1NC(=O)[C@@H]1CCCN1C(=O)[C@@H](NC(=O)[C@H](C)NC)C(C)(C)C)C(C)(C)C"
  Experimental Target: "PANC-1 cells"
  Result Comparator: "="
  IC50 (µM): 0.069
- Compound: "CN[C@@H](C)C(=O)N[C@H](C(=O)N[C@@H](CCNC(=O)c1cc(C(=O)N[C@H]2C[C@@H](C(=O)N[C@@H]3CCCc4ccccc43)N(C(=O)[C@@H](NC(=O)[C@H](C)NC)C(C)(C)C)C2)cc([N+](=O)[O-])c1)C(=O)N[C@@H]1CCCc2ccccc21)C(C)C"
  Experimental Target: "PANC-1 cells"
  Result Comparator: "="
  IC50 (µM): 0.043
